Data credit: ChEMBL document CHEMBL1124646

# Target Entity: Adenosine A2 receptor (Rattus norvegicus, UniProt P29276+P30543)
# Assay type: cell membranes, Membrane
Items are presented alongside their recorded log10 of Ki.
Measured Endpoint: log10 of Ki (log10 of the value in nM)

# Compound, log10 of Ki
rows = [
    ("Cn1c(=O)c2nc(C3CCCC3)[nH]c2n(C)c1=S", 3.14),
    ("CCCn1c(=O)c2nc(-c3ccc(OCC(=O)NCCNC(=O)Cc4ccc(I)s4)cc3)[nH]c2n(CCC)c1=O", 2.06),
    ("CCCn1c(=O)c2nc(-c3ccc(OCC(=O)NCCNC(=O)C(N)CCCCNC(=O)OCc4ccccc4)cc3)[nH]c2n(CCC)c1=S.O=C(O)C(F)(F)F (stereo not drawn)", 2.51),
    ("Cn1c(=S)c2nc(C3CCCC3)[nH]c2n(C)c1=O", 3.95),
    ("CCCn1c(=O)c2nc(-c3ccc(OCC(=O)NCCNC(=O)C(N)CCCCNC(=O)OCc4ccccc4)cc3)[nH]c2n(CCC)c1=O.O=C(O)C(F)(F)F (stereo not drawn)", 2.28),
    ("Cn1c(=S)c2nc(C3CCCC3)[nH]c2n(C)c1=S", 4.06),
    ("CCCn1c(=O)c2nc(-c3ccc(OCC(=O)NCCNC(=O)CCCCCCC(=O)NCc4cccs4)cc3)[nH]c2n(CCC)c1=O", 2.80),
    ("CCCn1c(=S)c2nc(C3CCCC3)[nH]c2n(CCC)c1=S", 3.44),
]

----------
Items are presented alongside their recorded Ki.
# Target Entity: Adenosine A2 receptor (Rattus norvegicus, UniProt P29276+P30543)

# Compound, Comparator, Ki, nM
rows = [
    ("CCCn1c(=O)c2nc(-c3ccccc3)[nH]c2n(CCC)c1=S", "=", 422),
    ("CCCn1c(=O)c2nc(-c3cccs3)[nH]c2n(CCC)c1=S", ">", 5000),
    ("CCCn1c(=O)c2nc(-c3cccs3)[nH]c2n(CCC)c1=O", "=", 381),
    ("CCCn1c(=O)c2nc(-c3ccc(OCC(=O)O)cc3)[nH]c2n(CCC)c1=S", "=", 315),
    ("CCCn1c(=S)c2nc(C3CCCC3)[nH]c2n(CCC)c1=O", "=", 3360),
    ("Cn1c(=O)c2nc(-c3ccccc3)[nH]c2n(C)c1=S", ">", 7000),
    ("CCCn1c(=O)c2nc(-c3ccc(OCC(=O)NCCNC(=O)Cc4cccs4)cc3)[nH]c2n(CCC)c1=O", "=", 147),
    ("CCCn1c(=O)c2nc(-c3ccc(OCC(=O)NCCN)cc3)[nH]c2n(CCC)c1=S", "=", 26.3),
    ("Cn1c(=O)c2nc(-c3ccoc3)[nH]c2n(C)c1=O", "=", 984),
    ("CCCn1c(=O)c2[nH]c(C3CCCC3)nc2n(CCC)c1=S", "=", 314),
    ("CCCn1c(=O)c2nc(-c3ccco3)[nH]c2n(CCC)c1=O", "=", 640),
    ("CCCn1c(=O)c2nc(-c3ccc(OCC(=O)NCCN(C)C)cc3)[nH]c2n(CCC)c1=S", "=", 27.9),
    ("Cn1c(=S)c2nc(-c3ccccc3)[nH]c2n(C)c1=O", "=", 11300),
    ("CCCn1c(=O)c2nc(-c3ccc(OCC(=O)NCCNC(=O)C(CCCCNC(=O)OCc4ccccc4)NC(=O)OC(C)(C)C)cc3)[nH]c2n(CCC)c1=S (stereo not drawn)", "=", 870),
    ("CCCn1c(=O)c2nc(-c3ccc(OCC(=O)OCC)cc3)[nH]c2n(CCC)c1=S", ">", 5000),
    ("Cn1c(=O)c2nc(-c3ccsc3)[nH]c2n(C)c1=O", "=", 841),
    ("CCCn1c(=O)c2nc(-c3ccsc3)[nH]c2n(CCC)c1=O", "=", 121),
    ("Cn1c(=O)c2nc(-c3ccco3)[nH]c2n(C)c1=O", "=", 2780),
    ("CCCn1c(=O)c2nc(-c3ccc(OCC(=O)OCC)cc3)[nH]c2n(CCC)c1=O", ">", 5000),
    ("Cn1c(=O)c2nc(-c3ccco3)[nH]c2n(C)c1=S", "=", 4450),
    ("CCn1c(=S)c2nc(-c3ccccc3)[nH]c2n(CC)c1=O", "=", 3510),
    ("Cn1c(=O)c2nc(-c3cccs3)[nH]c2n(C)c1=S", "=", 1740),
    ("Br.Br.CCCn1c(=O)c2nc(-c3ccc(OCC(=O)NCCNC(=O)C(N)CCCCN)cc3)[nH]c2n(CCC)c1=S (stereo not drawn)", "=", 46.8),
    ("CCCn1c(=O)c2nc(-c3ccc(OCC(=O)NCCN(C)C)cc3)[nH]c2n(CCC)c1=O", "=", 5.03),
    ("CCCn1c(=O)c2nc(-c3ccc(OCC(=O)N(C)CCN(C)C)cc3)[nH]c2n(CCC)c1=S", "=", 24.5),
    ("CCCn1c(=O)c2nc(-c3ccco3)[nH]c2n(CCC)c1=S", "=", 594),
    ("Br.Br.CCCn1c(=O)c2nc(-c3ccc(OCC(=O)NCCNC(=O)C(N)CCCCN)cc3)[nH]c2n(CCC)c1=O (stereo not drawn)", "=", 180),
    ("Cn1c(=O)c2nc(-c3cccs3)[nH]c2n(C)c1=O", "=", 1630),
]
